- System: DU-145 prostate
- assay-summary: NCI-60 one-dose screen, 48 h (100 = growth as untreated, 0 = no growth, -100 = all killed)
- setup-conditions: 10 µM unless noted
Compounds without any hit were thinned out: in the full panel of roughly 83,000, 20% have a hit. Calls of active or inactive are those of the source. How the source made its calls: active means growth percent below 10; inactive means the rest.
readout-name: growth

[[record]]
structure_notation = "COc1ccc(/C=C\\c2nc3ccccc3s2)cc1OP(=O)(O)O"
readout_name = "growth"
measured_result = "29.1% (inactive)"

[[record]]
structure_notation = "CCOc1ccc(/C=N/Nc2cc(C)nc3ccc(Cl)cc23)cc1"
readout_name = "growth"
measured_result = "44.4% (inactive)"

[[record]]
structure_notation = "C#Cc1cccc(NC(=O)Nc2ccc(NC(=O)CCl)cc2)c1"
readout_name = "growth"
measured_result = "22.3% [8.25 µM] (inactive)"

[[record]]
structure_notation = "CCOC(=O)c1c(O)cc(-c2ccccc2)cc1-c1sc(N(C)Cc2ccccc2)nc1Cl"
readout_name = "growth"
measured_result = "108% (inactive)"

[[record]]
structure_notation = "COc1ccc(Cc2nc3cc(OC)c(OC)cc3c(=O)[nH]2)cc1"
readout_name = "growth"
measured_result = "39.5% (inactive)"

[[record]]
structure_notation = "CN1C2CCC1CN(c1cnc(C(=O)Nc3cc(F)cc4cccnc34)cn1)C2"
readout_name = "growth"
measured_result = "74.6% (inactive)"


Values compiled from PubChem BioAssay (NCI).
